TARGET_DESC: T1, PDZRN3_1, Q9UPQ7
T1 sequence (Q9UPQ7 244-349, limits assumed, looked up): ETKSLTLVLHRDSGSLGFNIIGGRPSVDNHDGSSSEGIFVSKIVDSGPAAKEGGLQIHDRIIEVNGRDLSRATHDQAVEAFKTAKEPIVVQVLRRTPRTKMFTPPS
TEST_SUMMARY: holdup assay
Design: key: below the threshold = too weak to quantify, mostly under pKd 3.1 to 4
MEASUREMENT_CONTEXT: plain residues with an end cap or a label only (N-terminal biotin on a linker: ahx)
ENDPOINT_LABEL: pKd

HNAFLSVTTV [PDZRN4, Q6ZMN7] | 3.56
GYDWGPATDL [TJP3, O95049] | 3.69
